The following binders are shown together with reported optical density values.
Target: Human Fc (human)
Experiment: ELISA; negative control
Numbers only; they are read as OD.

Use the examples below as a reference point.
INSERT INTO results (binder, measurementtype, datavalue) VALUES
  ('371_H11 (antibody, V domains shown) VH: EVQLLESGGGLVQPGGSLRLSCAASGFTFSSYSMNWVRQAPGKGLEWVSGINYNGGYKGYADSVKGRFTISRDNSKNTLYLQMNSLRAEDTAVYYCARGATWHDTHLDYWGQGTLVTVSS VL: DIQMTQSPSSLSASVGDRVTITCRASQSILTYLNWYQQKPGKAPKLLIYATTSRHSGVPSRFSGSGSGTDFTLTISSLQPEDFATYYCQQSYESPLTFGGGTKVEIK', 'optical density', 0.363),
  ('371_E09 (antibody, V domains shown) VH: EVQLLESGGGLVQPGGSLRLSCAASGFTFSDYSMNWVRQAPGKGLEWVSGINYNSGYTSYADSVKGRFTISRDNSKNTLYLQMNSLRAEDTAVYYCARGATWHDTHLDYWGQGTLVTVSS VL: DIQMTQSPSSLSASVGDRVTITCRASQSILTYLNWYQQKPGKAPKLLIYAATSRASGVPSRFSGSGSGTDFTLTISSLQPEDFATYYCQQSYNSPLTFGGGTKVEIK', 'optical density', 0.306),
  ('367_F09 (antibody, V domains shown) VH: EVQLLESGGGLVQPGGSLRLSCAASGFTFDSYSMHWVRQAPGKGLEWVAGINYNGGYTSYADSVKGRFTISRDNSKNTLYLQMNSLRAEDTAVYYCARGATWHDTHLDYWGQGTLVTVSS VL: DIQMTQSPSSLSASVGDRVTITCRASQSILTYLNWYQQKPGKAPKLLIYAATSLASGVPSRFSGSGSGTDFTLTISSLQPEDFATYYCQQSDSNPLTFGGGTKVEIK', 'optical density', 0.289),
  ('369_D08 (antibody, V domains shown) VH: EVQLLESGGGLVQPGGSLRLSCAASGFTFSDYSMNWVRQAPGKGLEWVASINYNGGYKGYADSVKGRFTISRDNSKNTLYLQMNSLRAEDTAVYYCARGATWHDTHLDYWGQGTLVTVSS VL: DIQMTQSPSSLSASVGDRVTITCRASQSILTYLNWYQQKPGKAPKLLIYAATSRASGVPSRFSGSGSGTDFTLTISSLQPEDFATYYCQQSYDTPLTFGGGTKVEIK', 'optical density', 0.241),
  ('365_B01 (antibody, V domains shown) VH: EVQLLESGGGLVQPGGSLRLSCAASGFTFDSYGMHWVRQAPGKGLEWVASINYNSGYTSYADSVKGRFTISRDNSKNTLYLQMNSLRAEDTAVYYCARSANWHDTALDYWGQGTLVTVSS VL: DIQMTQSPSSLSASVGDRVTITCRASQSISSYVNWYQQKPGKAPKLVIYAATSRASGVPSRFSGSGSGTDFTLTISSLQPEDFATYYCQQSYESPLTFGGGTKVEIK', 'optical density', 0.445),
  ('376_A07 (antibody, V domains shown) VH: EVQLLESGGGLVQPGGSLRLSCAASGFTFSSYSMNWVRQAPGKGLEWVSGINYNGGYKSYADSVKGRFTISRDNSKNTLYLQMNSLRAEDTAVYYCARGATWHDTHLDYWGQGTLVTVSS VL: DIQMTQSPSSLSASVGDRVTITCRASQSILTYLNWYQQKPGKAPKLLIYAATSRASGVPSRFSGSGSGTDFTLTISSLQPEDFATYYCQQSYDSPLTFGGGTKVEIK', 'optical density', 0.221);

Task item: Endpoint output: optical density of 365_B06 (antibody, V domains shown) VH: EVQLLESGGGLVQPGGSLRLSCAASGFTFDSYGMHWVRQAPGKGLEWVSNINYNGGYKSYADSVKGRFTISRDNSKNTLYLQMNSLRAEDTAVYYCARSANWHDTALDYWGQGTLVTVSS VL: DIQMTQSPSSLSASVGDRVTITCRASQSILTYVNWYQQKPGKAPKLLIYATTSLASGVPSRFSGSGSGTDFTLTISSLQPEDFATYYCQQSYDLPLTFGGGTKVEIK . Value?
Reply: 0.281

Task item: Using the record for 367_B03 (antibody, V domains shown) VH: EVQLLESGGGLVQPGGSLRLSCAASGFTFSSYGMNWVRQAPGKGLEWVAGINYNGGYKSYADSVKGRFTISRDNSKNTLYLQMNSLRAEDTAVYYCARSANWHDTALDYWGQGTLVTVSS VL: DIQMTQSPSSLSASVGDRVTITCRASQSILTYLNWYQQKPGKAPKLLIYAATSLASGVPSRFSGSGSGTDFTLTISSLQPEDFATYYCQQSYNLPLTFGGGTKVEIK , report its optical density.
Reply: 0.318

Task item: Which optical density is reported for this binder? 369_H08 (antibody, V domains shown) VH: EVQLLESGGGLVQPGGSLRLSCAASGFTFSSYSMNWVRQAPGKGLEWVAGINYNSGYKSYADSVKGRFTISRDNSKNTLYLQMNSLRAEDTAVYYCARGATWHDTHLDYWGQGTLVTVSS VL: DIQMTQSPSSLSASVGDRVTITCRASQSILSYVNWYQQKPGKAPKLVIYAATSLASGVPSRFSGSGSGTDFTLTISSLQPEDFATYYCQQSYESPLTFGGGTKVEIK
Reply: 0.389

Task item: What value of optical density has been recorded for this entry: 370_H06 (antibody, V domains shown) VH: EVQLLESGGGLVQPGGSLRLSCAASGFTFDDYSMNWVRQAPGKGLEWVANINYNGGYTGYADSVKGRFTISRDNSKNTLYLQMNSLRAEDTAVYYCARGATWHDTHLDYWGQGTLVTVSS VL: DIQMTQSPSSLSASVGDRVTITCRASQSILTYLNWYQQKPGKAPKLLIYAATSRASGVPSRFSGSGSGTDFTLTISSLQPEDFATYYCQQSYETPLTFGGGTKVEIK
Reply: 0.358
